Cited source for all entries: patent US7074824B2

# System: BxPC-3
# protocol details: MTS growth inhibition assay
# Type: cell-based, human
# experimental context: BxPC-3 pancreas, Exp 3; read-out: Growth inhibitory activity (50% effective concentration, IC50)
Measured IC50 by item
observed property: IC50

* CCCCCC(=O)OC1=CC(=O)C(=O)c2ccccc21 | > 20 µM
* CC1(C)CC(O)C2=C(O1)c1ccccc1C(=O)C2=O (stereo not drawn) [CO-503, 4-hydroxy β-lapachone] | > 20 µM
* CC1(C)CC(=O)C2=C(O1)c1ccccc1C(=O)C2=O | > 20 µM
